Target: GPR139 (Homo sapiens)
Sequence (Q6DWJ6 whole entry): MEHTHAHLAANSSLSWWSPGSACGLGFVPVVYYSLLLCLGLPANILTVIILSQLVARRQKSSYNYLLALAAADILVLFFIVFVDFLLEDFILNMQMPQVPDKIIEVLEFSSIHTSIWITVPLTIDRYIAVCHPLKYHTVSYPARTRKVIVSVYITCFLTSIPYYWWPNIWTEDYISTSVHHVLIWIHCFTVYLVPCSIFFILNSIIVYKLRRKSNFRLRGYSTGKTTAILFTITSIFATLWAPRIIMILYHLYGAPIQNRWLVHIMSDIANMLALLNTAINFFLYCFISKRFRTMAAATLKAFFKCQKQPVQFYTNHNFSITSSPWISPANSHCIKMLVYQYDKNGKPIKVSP
Assay: GPR139 Agonist titration / agonist counterscreen assay (calcium detection, HEK-GPR139 cells)
Type: cell-based
Parameters: expressed in transfected cells; host or cells: HEK Aequorin cells, Maxcyte transient transfection
Settings: GPR139 Agonist Activity; based on logP
experimental_endpoint: Lipophilic Efficiency (logP)

Solved entries (count: 3):
COc1ccc(CCC(=O)Nc2ccc(-c3cn[nH]c3)c(OC)c2)cc1: 4.08
O=C(CN1C(=O)NC2(CCc3ccccc3C2)C1=O)Nc1ccccc1Oc1ccccc1 (centres unmarked): 4.01
O=C(CSc1ccc(Cl)cc1)Nc1nnc(-c2ccc(F)cc2)o1: 3.60

P = CN(C)C(CNC(=O)Nc1ccc(Cl)c(Cl)c1)c1cccnc1 (centres unmarked)
Q = CSc1cccc(NC(=O)C2C3C=CC4(O3)C2C(=O)N(C(C)c2ccccc2)C4C(=O)NC2CCCC(C)C2C)c1 (centres unmarked)
Would you mind telling me which has the lower recorded Lipophilic Efficiency (logP) between P and Q ? Returns: label corresponding to the selected item.
Q
